# Test system: Transcriptional activator protein LuxR (Aliivibrio fischeri)
# Measurement notes: Antagonist activity at Aliivibrio fischeri ES114 LuxR after 4 to 8 hrs by luminescence method
Here the recorded pIC50 is given for each entry.
On this scale, pIC50 is minus log10 of a concentration expressed in M (mol/L).

In [3]: df
Out[3]:
                                test_smiles  recorded_value
0           O=C(Cc1ccc(I)cc1)N[C@H]1CCOC1=O            6.05
1    O=C(Cc1ccc(C(F)(F)F)cc1)N[C@H]1CCOC1=O            6.22
2  O=C(Cc1ccc([N+](=O)[O-])cc1)N[C@H]1CCOC1=O            6.00
3          O=C(Cc1ccc(Cl)cc1)N[C@H]1CCOC1=O            5.39
4   O=C(Cc1ccc(-c2ccccc2)cc1)N[C@H]1CCOC1=O            5.96

The value of pIC50 measured for the compound "CCCCCCC(=O)N[C@H]1CCOC1=O" turned out to be 5.85

The value of pIC50 measured for the compound "O=C(Cc1ccc(Br)cc1)N[C@H]1CCOC1=O" turned out to be 5.43

* * *

# Test system: Transcriptional activator protein LuxR (Aliivibrio fischeri, UniProt P12746)
# Sequence (P12746 whole entry): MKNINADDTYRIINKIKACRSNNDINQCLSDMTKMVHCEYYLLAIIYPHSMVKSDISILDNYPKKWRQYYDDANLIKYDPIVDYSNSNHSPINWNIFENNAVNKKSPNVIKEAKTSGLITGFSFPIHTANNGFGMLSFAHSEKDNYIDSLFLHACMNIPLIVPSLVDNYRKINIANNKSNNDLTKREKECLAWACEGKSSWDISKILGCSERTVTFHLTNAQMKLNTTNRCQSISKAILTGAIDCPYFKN
# Measurement notes: Antagonist activity at Aliivibrio fischeri LuxR by luminescence method
Attribute measured: pIC50
On this scale, pIC50 is minus log10 of a concentration expressed in M (mol/L).

The value of pIC50 measured for the compound O=C(CC(=O)NC1CCOC1=O)Cc1ccccc1Cl (stereo not given) turned out to be 5.22

The value of pIC50 measured for the compound CCCCS(=O)(=O)NC1CCOC1=O (stereo not given) turned out to be 4.92

The value of pIC50 measured for the compound O=C(CC(=O)NC1CCOC1=O)Cc1ccc(F)cc1 (stereo not given) turned out to be 5.40

* * *

# Test system: Transcriptional activator protein LasR (Pseudomonas aeruginosa (strain ATCC 15692 / PAO1 / 1C / PRS 101 / LMG12228), UniProt P25084)
# Sequence (P25084 whole entry): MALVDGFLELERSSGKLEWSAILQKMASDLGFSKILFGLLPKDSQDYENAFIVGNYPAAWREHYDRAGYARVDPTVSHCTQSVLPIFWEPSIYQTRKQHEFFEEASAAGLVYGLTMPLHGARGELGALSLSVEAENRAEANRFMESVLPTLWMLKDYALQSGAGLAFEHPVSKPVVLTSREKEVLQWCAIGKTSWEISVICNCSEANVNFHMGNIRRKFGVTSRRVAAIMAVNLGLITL
# Measurement notes: Antagonist activity at Pseudomonas aeruginosa LasR transfected with lasB-GFP by […] method
Here the recorded pIC50 is given for each entry.
On this scale, pIC50 is minus log10 of a concentration expressed in M (mol/L).

Look over these answered cases.
                           compound  recorded_value
0    CCCCCCCCCSCC(=O)N[C@H]1CCOC1=O            4.30
1  Cc1ccc(SCC(=O)N[C@H]2CCOC2=O)cc1            4.30
2      CCCCCCCSCC(=O)N[C@H]1CCOC1=O            5.22

The value of pIC50 measured for the compound CCCCCCC[S+]([O-])CC(=O)NC1CCOC1=O (centres undefined) turned out to be 4.30

* * *

# Measurement notes: Inhibition of CviI/CviR in Chromobacterium violaceum ATCC 31532 assessed as reduction in violacein production incubated for 24 hrs
Attribute measured: IC50 (µM)
Give the value, in units of µM, as a plain number.

                                test_smiles  attribute_measured  recorded_value
0  CCCCCCCCCC(=O)Oc1c(-c2ccc(OC)cc2)oc2ccccc2c1=O                IC50            13.9

Let's switch to this molecule now.
The value of IC50 measured for the molecule "CCC(=O)Oc1c(-c2ccccc2Cl)oc2ccccc2c1=O" turned out to be 9.6
